molecular target: human wildtype CFTR (Homo sapiens); experiment: Short-circuit current measurement of CFTR inhibition; format: cell-based; conditions: short-circuit current, statements in running text
Sequence (P13569 whole entry): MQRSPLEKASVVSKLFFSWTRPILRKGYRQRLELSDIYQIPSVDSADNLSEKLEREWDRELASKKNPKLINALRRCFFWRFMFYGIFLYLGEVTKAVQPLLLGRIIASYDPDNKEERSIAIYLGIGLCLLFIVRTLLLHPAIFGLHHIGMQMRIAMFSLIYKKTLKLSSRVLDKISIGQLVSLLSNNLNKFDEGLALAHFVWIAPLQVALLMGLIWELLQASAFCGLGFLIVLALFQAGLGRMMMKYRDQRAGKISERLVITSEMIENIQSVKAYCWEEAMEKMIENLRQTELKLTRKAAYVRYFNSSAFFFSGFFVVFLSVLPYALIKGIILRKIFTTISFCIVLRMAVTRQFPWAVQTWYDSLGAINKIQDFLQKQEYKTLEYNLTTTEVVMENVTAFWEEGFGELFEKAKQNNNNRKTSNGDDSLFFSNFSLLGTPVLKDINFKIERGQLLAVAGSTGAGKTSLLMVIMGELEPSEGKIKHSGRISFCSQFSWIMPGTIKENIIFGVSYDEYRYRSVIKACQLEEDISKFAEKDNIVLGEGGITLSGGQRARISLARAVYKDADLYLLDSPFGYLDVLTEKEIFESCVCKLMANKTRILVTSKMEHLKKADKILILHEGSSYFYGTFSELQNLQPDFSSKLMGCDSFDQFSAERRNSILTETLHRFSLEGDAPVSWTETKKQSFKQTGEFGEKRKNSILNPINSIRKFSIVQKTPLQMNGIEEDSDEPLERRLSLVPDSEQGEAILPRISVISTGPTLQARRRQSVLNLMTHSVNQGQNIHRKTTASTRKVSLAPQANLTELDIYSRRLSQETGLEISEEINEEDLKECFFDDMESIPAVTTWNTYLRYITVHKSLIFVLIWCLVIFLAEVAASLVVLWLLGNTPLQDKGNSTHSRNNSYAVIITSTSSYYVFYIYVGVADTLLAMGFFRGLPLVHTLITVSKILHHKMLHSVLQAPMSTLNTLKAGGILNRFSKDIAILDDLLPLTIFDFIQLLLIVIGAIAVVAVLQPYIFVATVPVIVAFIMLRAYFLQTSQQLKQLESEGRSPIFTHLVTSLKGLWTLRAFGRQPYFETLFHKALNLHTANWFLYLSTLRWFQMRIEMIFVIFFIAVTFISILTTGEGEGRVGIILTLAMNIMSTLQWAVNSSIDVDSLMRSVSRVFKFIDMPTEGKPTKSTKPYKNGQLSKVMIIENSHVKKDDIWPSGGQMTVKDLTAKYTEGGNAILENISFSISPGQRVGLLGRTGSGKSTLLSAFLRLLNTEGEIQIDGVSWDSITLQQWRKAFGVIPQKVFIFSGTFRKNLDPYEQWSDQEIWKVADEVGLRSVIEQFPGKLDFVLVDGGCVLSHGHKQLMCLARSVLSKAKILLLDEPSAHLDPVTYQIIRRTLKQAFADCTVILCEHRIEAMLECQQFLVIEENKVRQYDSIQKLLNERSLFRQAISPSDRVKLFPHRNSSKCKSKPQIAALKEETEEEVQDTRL
Assay endpoint: CFTR inhibition activity (in words)

O=C(O)c1ccc(/C=C2\SC(=S)N(c3ccc(F)c(C(F)(F)F)c3)C2=O)cc1 [Compound 8]	intermediate activity
O=C(O)c1cccc(/C=C2\SC(=S)N(c3ccc(F)c(C(F)(F)F)c3)C2=O)c1 [Compound 11]	intermediate activity

###

Would you mind telling me the reported IC50 of each entry?
target: UniProtKB P13569; assay: Short-circuit current measurement of CFTR inhibition; format: cell-based; conditions: IC50 (μM), Table 2, variations in Ring B and Linkers 1 and 2; FRT cells expressing human wildtype CFTR
One number for each entry, in µM.

O=C1C(C(=S)Nc2ccc(S(=O)(=O)O)cc2)SC(=S)N1c1cccc(C(F)(F)F)c1 (centres unmarked) [Compound 54]	25

// O=C(O)c1ccc(NC(=S)C2SC(=S)N(c3cccc(C(F)(F)F)c3)C2=O)cc1O (centres unmarked) [Compound 53] : IC50 value = 11

Each recorded value in this set is attributed to paper PMC2577561.
